System: Caupolican (Caup) homeodomain DNA-binding domain
Sequence: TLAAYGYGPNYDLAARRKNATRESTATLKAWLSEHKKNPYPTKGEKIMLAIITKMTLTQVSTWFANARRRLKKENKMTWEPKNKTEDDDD
RUN DESCRIPTION: PBM E-score (8-mer, recovered from the published 9-mer minima) (E-score (dimensionless, -0.5 to 0.5)); Drosophila protein; higher = stronger relative binding preference, active = 0.31 or more
Many of the other results were omitted from the sample, so hits are more common in it than they were. The hit rate among all sequences tested is not known here.
Classes used: active, inactive

AATGTAAT : inactive
GGATGTAA : inactive
ACAAATGG : inactive
ACTGTAAA : inactive
AGAACCCT : inactive
CTTGTGTA : active
GACAAAGA : inactive
AACGGGTA : inactive
AAGCCTAC : inactive
GCTACAAC : inactive
GACATGTA : active
GTAAGGAA : inactive
AGATGTAT : inactive
CCTGTAAA : inactive
ATGTCATC : inactive
ATTGTATA : inactive
ATTTACAG : inactive
GAAATGTC : inactive
GGCCGTAA : inactive
AATGTAAA : active
CGGGACTC : inactive
GTTCCCAA : inactive
CTGCATGA : inactive
AACAATGA : inactive
TCATTAAA : inactive
GTACATTA : active
CAACCCCA : inactive
GATTTGCA : inactive
ACCCAAGC : inactive
ATGTCATG : active
CAACCGTA : inactive
TAAACGCA : inactive
GCATGCGC : inactive
AGATTTTA : inactive
ATAGGCGA : inactive
ACGACTTC : inactive
ACTACAAA : inactive
AGTAAGAA : inactive
CCGTTTTC : inactive
ATGGTATC : inactive
GACATGTC : active
CACAAGGA : inactive
GTGTCATA : inactive
CTACATTA : inactive
AAAGTATT : inactive
GCACATGA : inactive
TAGTGTGA : inactive
GCTGTAAA : inactive
ATGTCATA : active
TAACAGCA : inactive
CATGGATA : inactive
ACTACAAG : active
GCTTACAA : inactive
GACATATC : inactive
ACTACAAT : inactive
CGAAGTCC : inactive
GAATAGCC : inactive
GACATTTA : inactive
AAGCATCA : inactive
CGCTTTAC : inactive
AATCGTAA : inactive
AGCTGTAA : inactive
GCTGTATA : inactive
ATTGTGTA : inactive
ATTTACAC : inactive
AGTGGCCG : inactive
ACAAATGT : active
CCTTGCTA : inactive
CTCACAGC : inactive
ATAATGCC : inactive
GGCTATAC : inactive
ATACATTA : inactive
CATGTAAG : active
GCGATCGA : inactive
CCTACCGA : inactive
AACACGTG : active
CCGGAGAG : inactive
ATCAGTAC : inactive
ATTTACAA : active
CTACATGA : active
AGACCCCT : inactive
AACACGTT : inactive
CTTTACAA : inactive
CGTGTATC : inactive
CATGGGGG : inactive
AACATCTC : inactive
AAAATGTC : inactive
CCTGTAAG : inactive
CTGTCAGA : inactive
GCGTACGC : inactive
AGATCCCT : inactive

Source listed as the supplement of paper PMC3724861.
